Tested on: STAT5 Y694 phosphorylation
testSummary: Protein electrophoresis and blotting of STAT5 Y694 phosphorylation in Jurkat cells stimulated with human interferon beta
Type: cell-based
assayContext: observed pSTAT5 bands at 10 μM and 100 μM
parameter: Example of Effect 1: Inhibiting Ability (Protein Electrophoresis and Blotting)

# molecule, measuredValue
rows = [
    ("CN(C)c1ccc(CC(=O)N2CCC(n3c(=O)[nH]c4cccc(C(F)(F)F)c43)CC2)cc1 [GEN1-118]", "+"),
    ("O=C(Cc1ccc(C(F)(F)F)cc1)N1CCC(n2c(=O)[nH]c3ccccc32)CC1 [Example X8]", "+"),
    ("O=C(CC(F)(F)F)N1CCC(n2c(=O)[nH]c3ccccc32)CC1 [Example X2]", "−"),
    ("O=C(Cc1ccc(C(F)(F)F)cc1)N1CCC(N2c3ccccc3NS2(=O)=O)CC1 [GEN1-054]", "−"),
    ("O=C(Cc1ccc(O)cc1)N1CCC(n2c(=O)[nH]c3ccccc32)CC1 [GEN1-071]", "−"),
    ("O=C1CN(C2CCN(C(=O)Cc3ccc4ncccc4c3)CC2)c2ccccc2N1 [GEN1-120]", "−"),
    ("O=C(Cc1ccc(Cl)cc1)N1CCC(n2c(=O)[nH]c3cccc(C(F)(F)F)c32)CC1 [GEN1-156]", "+"),
    ("O=C(Cc1ccc(C(F)(F)F)cc1)N1CCC(n2c(=O)c(=O)[nH]c3ccccc32)CC1 [GEN1-127]", "+"),
    ("CN(C)c1ccc(CC(=O)N2CCC(n3c(=O)[nH]c4ccccc43)CC2)cc1 [GEN1-097]", "+"),
    ("CC(=O)N1CCN(C2CCN(C(=O)Cc3ccc(C(F)(F)F)cc3)CC2)c2ccccc21 [GEN1-243]", "+"),
    ("O=C(Cc1ccc(C(F)(F)F)cc1)N[C@H]1C[C@H](n2c(=O)[nH]c3ccccc32)C1 [GEN1-025]", "−"),
]

====

System: STAT5 Y694 phosphorylation
testSummary: Protein electrophoresis and blotting of STAT5 Y694 phosphorylation in Jurkat cells stimulated with human interferon beta
Assay type: cell-based
assayContext: 100 μM, 1 hour pretreatment, 20 ng/ml human interferon beta 30 minutes, pSTAT5/GAPDH
Form field: Inhibiting Ratio (0% for vehicle control) (one value per entry).
parameter: Inhibiting Ratio (0% for vehicle control)

# molecule, targetEntity, measuredValue
measured = [
    ("O=C(Cc1ccc(C(F)(F)F)cc1)N1CCC(n2c(=O)[nH]c3cc(C(F)(F)F)ccc32)CC1", "STAT5 Y694 phosphorylation", "95.6%"),
    ("O=C(Cc1ccc(C(F)(F)F)cc1)N[C@H]1CC[C@H](n2c(=O)[nH]c3ccccc32)CC1", "STAT5 Y694 phosphorylation", "81.2%"),
    ("O=C(Cc1ccc(C(F)(F)F)cc1)N1CCC(n2c(=O)[nH]c3ccccc32)CC1", "STAT5 Y694 phosphorylation", "95.6%"),
    ("COc1cccc2c1[nH]c(=O)n2C1CCN(C(=O)Cc2ccc(C(F)(F)F)cc2)CC1", "STAT5 Y694 phosphorylation", "94.1%"),
]

====

System: STAT5 Y694 phosphorylation
testSummary: Protein electrophoresis and blotting of STAT5 Y694 phosphorylation in Jurkat cells stimulated with human interferon beta
Format: cell-based
assayContext: observed pSTAT5 bands at 10 μM and 100 μM
parameter: Example of Effect 1: Inhibiting Ability (Protein Electrophoresis and Blotting)

# molecule, measuredValue
measured = [
    ("Cc1ccc(CC(=O)N2CCC(n3c(=O)[nH]c4ccccc43)CC2)cc1 [Example X7]", "−"),
    ("COc1ccc2[nH]c(=O)n(C3CCN(C(=O)Cc4ccc(C(F)(F)F)cc4)CC3)c2c1 [GEN1-011]", "+"),
    ("O=C(Cc1ccc2ncccc2c1)N1CCC(n2c(=S)[nH]c3ccccc32)CC1 [GEN1-137]", "+"),
    ("O=c1[nH]c2ccccc2n1C1CCN(CCCC(c2ccc(F)cc2)c2ccc(F)cc2)CC1 [Example N1, Pimozide, reference compound]", "+"),
    ("NC(=O)c1cccc2[nH]c(=O)n(C3CCN(C(=O)Cc4ccc(C(F)(F)F)cc4)CC3)c12 [GEN1-095]", "−"),
    ("O=C(c1ccc(C(F)(F)F)cc1)N1CCC(n2c(=O)[nH]c3ccccc32)CC1 [GEN1-017]", "−"),
    ("O=C(O)c1ccc(CC(=O)N2CCC(n3c(=O)[nH]c4ccccc43)CC2)cc1 [Example X6]", "−"),
]
